Numbers sourced from patent US20260103455A1.

# UniProt:O60674: IC50 values follow
# Sequence (O60674 whole entry): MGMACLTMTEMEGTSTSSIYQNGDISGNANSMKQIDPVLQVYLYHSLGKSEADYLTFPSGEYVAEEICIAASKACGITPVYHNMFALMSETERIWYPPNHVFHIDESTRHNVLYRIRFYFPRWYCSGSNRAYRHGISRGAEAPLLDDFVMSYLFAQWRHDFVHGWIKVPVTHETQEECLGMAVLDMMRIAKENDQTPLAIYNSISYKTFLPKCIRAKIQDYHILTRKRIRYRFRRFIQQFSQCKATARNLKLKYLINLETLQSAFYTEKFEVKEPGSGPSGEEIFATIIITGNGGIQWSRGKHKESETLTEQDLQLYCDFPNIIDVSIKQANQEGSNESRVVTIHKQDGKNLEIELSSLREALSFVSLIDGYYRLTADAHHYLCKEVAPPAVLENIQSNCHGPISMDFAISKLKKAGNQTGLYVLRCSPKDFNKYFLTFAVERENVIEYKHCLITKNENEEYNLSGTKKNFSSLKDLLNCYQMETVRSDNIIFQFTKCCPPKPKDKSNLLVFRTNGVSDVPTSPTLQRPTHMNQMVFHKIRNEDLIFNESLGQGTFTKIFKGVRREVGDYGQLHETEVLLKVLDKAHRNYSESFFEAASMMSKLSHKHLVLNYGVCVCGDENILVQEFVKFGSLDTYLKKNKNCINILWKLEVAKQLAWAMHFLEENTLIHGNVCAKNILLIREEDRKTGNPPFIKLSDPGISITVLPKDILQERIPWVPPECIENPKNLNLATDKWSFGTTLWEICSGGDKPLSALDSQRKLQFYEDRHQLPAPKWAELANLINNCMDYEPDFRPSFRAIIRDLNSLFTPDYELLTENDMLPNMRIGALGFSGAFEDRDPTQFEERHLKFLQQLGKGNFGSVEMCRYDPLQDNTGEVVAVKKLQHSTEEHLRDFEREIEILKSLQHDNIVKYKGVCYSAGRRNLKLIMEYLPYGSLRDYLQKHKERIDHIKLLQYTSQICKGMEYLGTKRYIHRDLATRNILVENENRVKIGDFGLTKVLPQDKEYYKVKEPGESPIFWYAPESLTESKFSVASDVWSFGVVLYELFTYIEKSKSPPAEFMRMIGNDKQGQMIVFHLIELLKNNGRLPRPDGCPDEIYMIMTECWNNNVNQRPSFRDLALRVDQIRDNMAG
endpoint.name: IC50 (nM)

A: CC(C)(C)[C@@H](CO)NC(=O)c1ccc(-c2ccnc(Nc3ccc(N4CCOCC4)cc3)n2)cc1 [BH1-062]
B: CC(NC(=O)c1ccc(-c2ccnc(Nc3ccc(N4CCOCC4)cc3)n2)cc1)C(F)(F)F (racemic) [SR8-170]
Problem: Please tell me which of the two, A or B , has the higher reported IC50 value. Record your answer as the label of the chosen record.
Result: A

* * *

target: ULK3 (Homo sapiens, UniProt Q6PHR2); assay: IC50 for ULK3, Reaction Biology kinase assay (32P Hotspot assay); type: biochemical
Sequence (Q6PHR2 whole entry): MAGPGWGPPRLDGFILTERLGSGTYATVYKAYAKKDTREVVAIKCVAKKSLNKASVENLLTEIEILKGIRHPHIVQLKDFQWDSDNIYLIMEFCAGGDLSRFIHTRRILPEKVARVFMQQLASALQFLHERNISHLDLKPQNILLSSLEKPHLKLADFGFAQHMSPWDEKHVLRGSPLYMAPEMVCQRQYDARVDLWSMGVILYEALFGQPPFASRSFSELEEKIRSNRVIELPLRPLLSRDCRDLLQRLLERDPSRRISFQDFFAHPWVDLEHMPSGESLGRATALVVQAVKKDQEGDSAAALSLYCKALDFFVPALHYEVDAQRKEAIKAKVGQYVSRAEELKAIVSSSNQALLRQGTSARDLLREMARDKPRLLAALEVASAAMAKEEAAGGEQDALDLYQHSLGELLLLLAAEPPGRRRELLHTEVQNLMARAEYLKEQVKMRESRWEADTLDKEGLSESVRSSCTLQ
pIC50: −log10 of the molar value.
endpoint.name: pIC50

O=C(NCC(F)(F)F)c1ccc(-c2ccnc(Nc3ccc(N4CCOCC4)cc3)n2)cc1    7.99
CC(NC(=O)c1ccc(-c2ccnc(Nc3ccc(N4CCOCC4)cc3)n2)cc1)C(F)(F)F (racemic)    8.06

* * *

8226 GI50 data
Write it as a number; the unit nM goes unstated.

For orientation, consider the following solved cases.
CC(NC(=O)c1ccc(-c2ccnc(Nc3ccc(N4CCOCC4)cc3)n2)cc1)C(F)(F)F (racemic)    290
O=C(NCC(F)(F)F)c1ccc(-c2ccnc(Nc3ccc(N4CCOCC4)cc3)n2)cc1    83.5
CN1CCC(c2cnc(Nc3nc(-c4ccc(C(=O)NCC(F)(F)F)cc4)c4cc[nH]c4n3)cc2F)CC1    12000

Problem: For the molecule CN1CCN(Cc2ccc(Nc3nc(-c4ccc(C(=O)NCC#N)cc4)c4cc[nH]c4n3)cc2)CC1 , what GI50 is on record?
Result: 3630

* * *

target: UniProt O60674; experiment: DSF (JAK2) thermal shift; assay type: binding
endpoint.name: DSF (JAK2) ΔTm (° C.) (°C)

Solved entries:
O=C(NCC(F)(F)F)c1ccc(-c2ccnc(Nc3ccc(N4CCOCC4)c(F)c3)n2)cc1    0.5
O=C(c1ccc(-c2ccnc(Nc3ccc(N4CCOCC4)cc3)n2)cc1)N1CCC[C@@H]1C(F)(F)F    1.4
N#CCNC(=O)c1ccc(-c2nc(Nc3ccc(N4CCOCC4=O)cc3)ncc2F)cc1    1.1

1: Cc1cnc(Nc2ccc(N3CCOCC3=O)cc2)nc1-c1ccc(C(=O)NCC#N)cc1
2: N#CCNC(=O)c1ccc(-c2ccnc(Nc3ccc(N4CCOCC4=O)cc3)n2)cc1
Problem: Thinking about recorded DSF (JAK2) ΔTm (° C.) values, which is higher, 1 or 2 ? State the label of the item chosen.
Result: 1

* * *

target: UniProt:Q6PHR2; experiment: DSF (ULK3) thermal shift; assay type: binding
endpoint.name: DSF (ULK3) ΔTm (° C.) (°C)

Here is how some molecules turned out for DSF (ULK3) ΔTm (° C.).
C[C@H](NC(=O)c1ccc(-c2ccnc(Nc3ccc(N4CCOCC4)cc3)n2)cc1)C(F)(F)F    12.5
CN1CCN(c2cc(F)cc(Nc3nccc(-c4ccc(C(=O)N5CCC[C@@H]5C(F)(F)F)cc4)n3)c2)CC1    14.1

I: O=C(NCC(F)(F)F)c1ccc(-c2ccnc(Nc3ccc(N4CCOCC4)cc3N3CCOCC3)n2)cc1
II: Cc1cnc(Nc2ccc(CN3CCN(C)CC3)cc2)nc1-c1ccc(C(=O)NCC#N)cc1
Problem: Hello, I am sorting some records. Could you say if I or II has the smaller DSF (ULK3) ΔTm (° C.) value? // return label of chosen record
Result: I
